- Tested on: Klebsiella aerogenes
- PROTOCOL_DESCRIPTION: Minimum inhibitory concentration against Klebsiella aerogenes 1522E was determined by agar dilution method using Mueller-Hinton
- Assay type: functional
EXPERIMENTAL_ENDPOINT: MIC (µg/mL)

[1] C[C@@H](O)[C@H]1C(=O)N2C(C(=O)O)=C(S[C@@H]3CN[C@H](/C=C/c4cc(Cl)no4)C3)[C@H](C)[C@H]12
[2] C[C@@H](O)[C@H]1C(=O)N2C(C(=O)O)=C(S[C@@H]3CN[C@H](/C=C\c4cnoc4)C3)[C@H](C)[C@H]12
[3] COC(=O)c1cc(/C=C\[C@@H]2C[C@H](SC3=C(C(=O)O)N4C(=O)[C@H]([C@@H](C)O)[C@H]4[C@H]3C)CN2)on1
# rank_down: sort by MIC, max first Please, when replying, give the labels in the order that was requested.
2, 3, 1
